Target: Thromboxane A2 receptor (Homo sapiens, UniProt P21731)
Sequence (P21731 whole entry): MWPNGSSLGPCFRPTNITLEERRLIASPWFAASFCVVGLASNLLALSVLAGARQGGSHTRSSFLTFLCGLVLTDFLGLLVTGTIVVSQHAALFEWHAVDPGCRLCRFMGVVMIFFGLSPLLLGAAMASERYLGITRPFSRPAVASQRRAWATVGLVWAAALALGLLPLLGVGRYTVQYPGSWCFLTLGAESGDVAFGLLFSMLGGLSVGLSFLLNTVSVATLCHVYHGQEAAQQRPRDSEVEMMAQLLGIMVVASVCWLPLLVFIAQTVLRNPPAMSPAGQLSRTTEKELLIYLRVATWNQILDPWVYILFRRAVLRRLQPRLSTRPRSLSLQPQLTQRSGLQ
Measured Attribute: IC50

**Q:** Recorded IC50 for Cc1c(CC(=O)O)c2cccnc2n1Cc1ccc(S(C)(=O)=O)cc1C(F)(F)F [FEVIPIPRANT] with Thromboxane A2 receptor (Homo sapiens, UniProt P21731), please?
**A:** > 10 µM

* * *

Assay: Volume of distribution at steady state in Wistar rat at 0.5 mg/kg, iv or 3 mg/kg, po by LC-MS/MS analysis
Format: ADME, organism-based
Details: in vivo, read-out: Vdss
Assignment: determine reported Vd for the given compounds.
Give me the value, and tack the unit on after it.

**Q:** Which Vd is listed for "CCS(=O)(=O)c1ccc(Cn2c(C)c(CC(=O)O)c3cccnc32)c(C(F)(F)F)c1" ?
**A:** 1.2 L/kg

**Q:** Which Vd is listed for "CCS(=O)(=O)c1ccc(Cn2c(C)c(CC(=O)O)c3cccnc32)c(Cl)c1" ?
**A:** 1.1 L/kg

**Q:** Which Vd is listed for "Cc1c(CC(=O)O)c2cccnc2n1Cc1ccc(S(C)(=O)=O)cc1C(F)(F)F" ?
**A:** 1.1 L/kg

* * *

Assignment: determine reported bioavailability for the given compounds.
Assay: Oral bioavailability in Wistar rat at 3 mg/kg by LC-MS/MS analysis
Type: ADME, organism-based
Details: in vivo
Write it as a number; the unit % goes unstated.

**Q:** Which bioavailability is listed for Cc1c(CC(=O)O)c2cccnc2n1Cc1ccc(S(C)(=O)=O)cc1C(F)(F)F [FEVIPIPRANT] ?
**A:** 43

**Q:** Which bioavailability is listed for "CCS(=O)(=O)c1ccc(Cn2c(C)c(CC(=O)O)c3cccnc32)c(C(F)(F)F)c1" ?
**A:** 97

**Q:** Which bioavailability is listed for "CCS(=O)(=O)c1ccc(Cn2c(C)c(CC(=O)O)c3cccnc32)c(Cl)c1" ?
**A:** 71

* * *

Assignment: determine reported Ki for the given compounds.
Biological target: Prostaglandin D2 receptor 2 (Homo sapiens)
Sequence (Q9Y5Y4 whole entry): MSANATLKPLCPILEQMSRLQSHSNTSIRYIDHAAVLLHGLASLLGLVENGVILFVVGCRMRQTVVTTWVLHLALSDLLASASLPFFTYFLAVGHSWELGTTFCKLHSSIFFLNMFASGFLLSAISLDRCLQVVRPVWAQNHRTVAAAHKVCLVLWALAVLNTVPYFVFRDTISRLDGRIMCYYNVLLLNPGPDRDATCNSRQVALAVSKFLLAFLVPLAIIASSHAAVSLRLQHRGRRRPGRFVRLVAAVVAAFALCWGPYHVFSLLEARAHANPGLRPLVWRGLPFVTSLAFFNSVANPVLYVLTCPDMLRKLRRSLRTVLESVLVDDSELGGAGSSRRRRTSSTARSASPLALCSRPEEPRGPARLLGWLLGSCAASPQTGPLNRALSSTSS
Experiment: Displacement of [3H]PGD2 from human DP2 receptor expressed in CHO cell membranes after 60 mins by scintillation proximity assay
Write it as a number; the unit µM goes unstated.

**Q:** Which Ki is listed for "Cc1c(CC(=O)O)c2cccnc2n1Cc1ccc(S(=O)(=O)C(C)C)cc1" ?
**A:** 0.086

**Q:** Which Ki is listed for "CCS(=O)(=O)c1ccc(Cn2c(C)c(CC(=O)O)c3cccnc32)cc1" ?
**A:** 0.05

**Q:** Which Ki is listed for "Cc1c(CC(=O)O)c2c(Cl)ccnc2n1Cc1ccc(S(C)(=O)=O)cc1" ?
**A:** 0.356

**Q:** Which Ki is listed for "CCc1ccc2c(CC(=O)O)c(C)n(Cc3ccc(S(C)(=O)=O)cc3)c2n1" ?
**A:** 0.047

**Q:** Which Ki is listed for "Cc1c(CC(=O)O)c2cccnc2n1Cc1ccc(S(C)(=O)=O)cc1Cl" ?
**A:** 0.004

* * *

Assignment: determine reported T1/2 for the given compounds.
Target: Prostaglandin D2 receptor 2 (Homo sapiens) (UniProt Q9Y5Y4)
Write it as a number; the unit min goes unstated.

**Q:** Recorded T1/2 for "Cc1c(CC(=O)O)c2cccnc2n1Cc1ccc(S(C)(=O)=O)cc1C(F)(F)F" with Prostaglandin D2 receptor 2 (Homo sapiens) (UniProt Q9Y5Y4), please?
**A:** 12

**Q:** Recorded T1/2 for "CCS(=O)(=O)c1ccc(Cn2c(C)c(CC(=O)O)c3cccnc32)c(Cl)c1" with Prostaglandin D2 receptor 2 (Homo sapiens) (UniProt Q9Y5Y4), please?
**A:** 3.36

**Q:** Recorded T1/2 for "Cc1c(CC(=O)O)c2cccnc2n1Cc1ccc(S(C)(=O)=O)cc1" with Prostaglandin D2 receptor 2 (Homo sapiens) (UniProt Q9Y5Y4), please?
**A:** 1.29

**Q:** Recorded T1/2 for "Cc1c(CC(=O)O)c2ccccc2n1Cc1ccc(S(C)(=O)=O)cc1" with Prostaglandin D2 receptor 2 (Homo sapiens) (UniProt Q9Y5Y4), please?
**A:** 0.18

* * *

Target: Prostaglandin F2-alpha receptor (Homo sapiens, UniProt P43088)
Sequence (P43088 whole entry): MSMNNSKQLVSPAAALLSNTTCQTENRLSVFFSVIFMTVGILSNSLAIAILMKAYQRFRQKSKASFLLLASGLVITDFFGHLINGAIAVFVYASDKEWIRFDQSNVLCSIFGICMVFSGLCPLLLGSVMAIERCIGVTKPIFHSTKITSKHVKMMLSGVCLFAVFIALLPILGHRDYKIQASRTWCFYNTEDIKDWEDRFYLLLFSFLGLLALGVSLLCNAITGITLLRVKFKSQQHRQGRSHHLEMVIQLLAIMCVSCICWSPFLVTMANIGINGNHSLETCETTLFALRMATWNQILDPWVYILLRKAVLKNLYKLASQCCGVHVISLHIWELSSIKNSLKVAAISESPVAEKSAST
pIC50: −log10 of the molar value.
Measured Attribute: pIC50

**Q:** Recorded pIC50 for "Cc1c(CC(=O)O)c2cccnc2n1Cc1ccc(S(C)(=O)=O)cc1C(F)(F)F" with Prostaglandin F2-alpha receptor (Homo sapiens, UniProt P43088), please?
**A:** < 5.00

* * *

Biological target: Prostaglandin D2 receptor 2 (Homo sapiens, UniProt Q9Y5Y4)
Sequence (Q9Y5Y4 whole entry): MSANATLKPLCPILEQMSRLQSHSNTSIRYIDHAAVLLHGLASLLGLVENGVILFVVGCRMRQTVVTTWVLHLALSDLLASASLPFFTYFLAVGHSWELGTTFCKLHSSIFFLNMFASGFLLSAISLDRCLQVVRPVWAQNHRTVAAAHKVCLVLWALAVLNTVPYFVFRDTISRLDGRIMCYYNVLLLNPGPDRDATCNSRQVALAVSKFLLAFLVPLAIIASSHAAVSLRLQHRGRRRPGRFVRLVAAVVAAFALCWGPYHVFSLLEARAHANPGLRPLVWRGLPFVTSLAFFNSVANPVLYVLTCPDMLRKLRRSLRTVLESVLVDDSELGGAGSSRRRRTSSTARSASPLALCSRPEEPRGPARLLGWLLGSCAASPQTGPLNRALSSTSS
Assay: Antagonist activity at DP2 receptor in human isolated eosinophils assessed as inhibition of DK-PGD2-induced shape change preincubated for 5 mins followed by DK-PGD2 addition measured after 5 mins by flow cytometry
With a cut-off of 5 nM, any IC50 strictly below it is called fulfilled; any IC50 meeting it or above is called not fulfilled.

**Q:** Confirm or reject: IC50 of "Cc1c(CC(=O)O)c2c(Cl)ccnc2n1Cc1ccc(S(C)(=O)=O)cc1" lies strictly below 5 nM
**A:** not fulfilled

**Q:** Confirm or reject: IC50 of "Cc1c(CC(=O)O)c2cccnc2n1Cc1ccc(S(C)(=O)=O)c(C(F)(F)F)c1" lies strictly below 5 nM
**A:** fulfilled

**Q:** Confirm or reject: IC50 of "CCS(=O)(=O)c1ccc(Cn2c(C)c(CC(=O)O)c3cccnc32)c(Cl)c1" lies strictly below 5 nM
**A:** fulfilled

**Q:** Confirm or reject: IC50 of "Cc1cc(S(C)(=O)=O)ccc1Cn1c(C)c(CC(=O)O)c2cccnc21" lies strictly below 5 nM
**A:** fulfilled

**Q:** Confirm or reject: IC50 of "CCS(=O)(=O)c1ccc(Cn2c(C)c(CC(=O)O)c3cccnc32)cc1" lies strictly below 5 nM
**A:** fulfilled

**Q:** Confirm or reject: IC50 of "CCc1ccc2c(CC(=O)O)c(C)n(Cc3ccc(S(C)(=O)=O)cc3)c2n1" lies strictly below 5 nM
**A:** not fulfilled

**Q:** Confirm or reject: IC50 of "Cc1c(CC(=O)O)c2cccnc2n1Cc1ccc(S(C)(=O)=O)cc1Cl" lies strictly below 5 nM
**A:** fulfilled

**Q:** Confirm or reject: IC50 of "Cc1c(CC(=O)O)c2cccnc2n1Cc1ccc(C(F)(F)F)cc1C(F)(F)F" lies strictly below 5 nM
**A:** not fulfilled

**Q:** Confirm or reject: IC50 of "CCS(=O)(=O)c1ccc(Cn2c(C)c(CC(=O)O)c3cccnc32)c(C(F)(F)F)c1" lies strictly below 5 nM
**A:** fulfilled

**Q:** Confirm or reject: IC50 of "Cc1c(CC(=O)O)c2cccnc2n1Cc1ccc(S(C)(=O)=O)cc1C(F)(F)F" lies strictly below 5 nM
**A:** fulfilled

**Q:** Confirm or reject: IC50 of "Cc1c(CC(=O)O)c2ccccc2n1Cc1ccc(S(C)(=O)=O)cc1" lies strictly below 5 nM
**A:** not fulfilled
